Every entry's value here was drawn from patent US20240140975A1.

Experiment: Pharmacokinetic evaluation in mice
Settings: male, CD-1, mouse, in vivo, po, 50 mg/kg
reportedEndpoint: AUC(0-t) (ng·h/mL)
Quick note: give the figure in ng·h/mL, leave out the unit.

Worked examples follow.
[2H]c1cc([C@]2(C#N)O[C@H](CO)[C@@H](O)[C@H]2O)n2ncnc(N)c12
5980
[2H]C([2H])(O)[C@H]1O[C@@](C#N)(c2ccc3c(N)ncnn23)[C@H](O)[C@@H]1O
4550

Now turn to the next molecule.
I am curious: what AUC(0-t) value has been reported for [2H]c1cc([C@]2(C#N)O[C@H](C([2H])([2H])O)[C@@H](O)[C@H]2O)n2ncnc(N)c12 (stereo in doubt) ?
5680
